- assay notes: refractive index (Na D-line) (dimensionless)
- protocol conditions: 293.15 K; 101.33 kPa; Liquid; Standard Abbe refractometry
Parameter refractive index: see the listing below.
readout label: refractive index

[
  {
    "compound": "CCCCC(=O)OCC [ethyl pentanoate]",
    "measured result": 1.4125
  },
  {
    "compound": "CCCC(=O)O [butanoic acid]",
    "measured result": 1.3982
  },
  {
    "compound": "CCOC(=O)CC(=O)OCC [diethyl 1,3-propanedioate]",
    "measured result": 1.4135
  },
  {
    "compound": "CCCCCCCCO [octan-1-ol]",
    "measured result": 1.428
  },
  {
    "compound": "CC(=O)c1ccccc1 [acetophenone]",
    "measured result": 1.5361
  },
  {
    "compound": "O [water]",
    "measured result": 1.3325
  }
]
